# system: T1, human CD4 on the surface of SKW3 cells or human PBMCs (human, UniProt P01730 26-458)
# T1 construct: whole, on cells; SKW3 CD4 knockout cells served as the negative cell line; also called hCD4; SKW3 WT
# assayDetails: FACS confirmation, supernatant on SKW3 WT cells, anti-human kappa FITC; background gMFI 2500
Entries and their SKW3 WT anti-hu Kappa FITC, gMFI
Answer with a number only, understood to be in gMFI.

binder | SKW3 WT anti-hu Kappa FITC, gMFI, gMFI
75110_09G15A (antibody, V domains shown, Tested here as non-clonal hybridoma supernatant from AlivaMab Mouse Kappa mice (detected with anti-mouse Fc and anti-human kappa)) VH: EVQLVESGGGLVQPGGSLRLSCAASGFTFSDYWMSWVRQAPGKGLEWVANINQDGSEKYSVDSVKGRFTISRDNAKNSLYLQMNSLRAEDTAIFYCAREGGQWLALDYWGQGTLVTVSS VL: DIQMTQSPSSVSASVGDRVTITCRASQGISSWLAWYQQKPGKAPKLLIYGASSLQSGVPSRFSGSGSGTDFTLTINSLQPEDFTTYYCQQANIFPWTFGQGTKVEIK | 5810
75110_04P08A (antibody, V domains shown, Tested here as non-clonal hybridoma supernatant from AlivaMab Mouse Kappa mice (detected with anti-mouse Fc and anti-human kappa)) VH: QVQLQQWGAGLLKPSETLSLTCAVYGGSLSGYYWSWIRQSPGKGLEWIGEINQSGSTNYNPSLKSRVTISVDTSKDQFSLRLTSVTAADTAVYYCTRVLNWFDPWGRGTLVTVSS VL: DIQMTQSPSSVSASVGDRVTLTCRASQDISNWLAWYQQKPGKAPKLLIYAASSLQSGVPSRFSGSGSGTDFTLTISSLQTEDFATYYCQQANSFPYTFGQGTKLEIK | 7420
75110_04B08A (antibody, V domains shown, Tested here as non-clonal hybridoma supernatant from AlivaMab Mouse Kappa mice (detected with anti-mouse Fc and anti-human kappa)) VH: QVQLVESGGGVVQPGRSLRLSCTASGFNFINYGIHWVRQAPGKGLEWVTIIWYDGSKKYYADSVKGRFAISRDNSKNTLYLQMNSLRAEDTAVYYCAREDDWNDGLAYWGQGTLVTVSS VL: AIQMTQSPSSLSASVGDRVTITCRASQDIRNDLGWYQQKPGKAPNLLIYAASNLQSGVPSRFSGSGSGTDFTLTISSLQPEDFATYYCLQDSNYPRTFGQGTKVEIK | 6160
75110_03L12A (antibody, V domains shown, Tested here as non-clonal hybridoma supernatant from AlivaMab Mouse Kappa mice (detected with anti-mouse Fc and anti-human kappa)) VH: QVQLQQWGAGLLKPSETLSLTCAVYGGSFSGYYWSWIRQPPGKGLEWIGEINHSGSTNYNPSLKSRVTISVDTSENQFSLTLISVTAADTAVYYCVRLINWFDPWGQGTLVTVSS VL: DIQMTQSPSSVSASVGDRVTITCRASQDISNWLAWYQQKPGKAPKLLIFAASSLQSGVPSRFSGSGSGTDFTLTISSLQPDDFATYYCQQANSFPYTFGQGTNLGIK | 8010
75110_01J09A (antibody, V domains shown, Tested here as non-clonal hybridoma supernatant from AlivaMab Mouse Kappa mice (detected with anti-mouse Fc and anti-human kappa)) VH: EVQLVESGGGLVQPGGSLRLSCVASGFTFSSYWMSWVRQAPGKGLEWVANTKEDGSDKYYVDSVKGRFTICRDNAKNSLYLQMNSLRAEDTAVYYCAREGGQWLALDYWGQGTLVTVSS VL: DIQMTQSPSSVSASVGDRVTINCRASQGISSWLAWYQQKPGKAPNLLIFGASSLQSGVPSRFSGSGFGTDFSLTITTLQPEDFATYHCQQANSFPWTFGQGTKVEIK | 5930

IN: For 75110_07H07A (antibody, V domains shown, Tested here as non-clonal hybridoma supernatant from AlivaMab Mouse Kappa mice (detected with anti-mouse Fc and anti-human kappa)) VH: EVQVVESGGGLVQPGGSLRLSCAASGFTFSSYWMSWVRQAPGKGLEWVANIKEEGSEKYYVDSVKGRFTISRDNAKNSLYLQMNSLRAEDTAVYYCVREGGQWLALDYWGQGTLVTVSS VL: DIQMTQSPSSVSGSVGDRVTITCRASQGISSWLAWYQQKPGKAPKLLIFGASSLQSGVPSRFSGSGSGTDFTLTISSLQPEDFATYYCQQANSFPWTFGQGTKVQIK , write its SKW3 WT anti-hu Kappa FITC, gMFI.
OUT: 8510

IN: For the binder 75110_01A06A (antibody, V domains shown, Tested here as non-clonal hybridoma supernatant from AlivaMab Mouse Kappa mice (detected with anti-mouse Fc and anti-human kappa)) VH: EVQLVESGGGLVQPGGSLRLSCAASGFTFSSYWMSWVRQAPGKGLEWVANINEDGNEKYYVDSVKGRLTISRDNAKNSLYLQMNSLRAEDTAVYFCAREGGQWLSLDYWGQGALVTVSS VL: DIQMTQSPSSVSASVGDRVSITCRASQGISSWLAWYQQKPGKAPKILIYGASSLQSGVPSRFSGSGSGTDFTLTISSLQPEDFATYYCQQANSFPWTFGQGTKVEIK , give its measured SKW3 WT anti-hu Kappa FITC, gMFI value.
OUT: 5930

IN: Please look at this binder and report its SKW3 WT anti-hu Kappa FITC, gMFI: 75110_03D16A (antibody, V domains shown, Tested here as non-clonal hybridoma supernatant from AlivaMab Mouse Kappa mice (detected with anti-mouse Fc and anti-human kappa)) VH: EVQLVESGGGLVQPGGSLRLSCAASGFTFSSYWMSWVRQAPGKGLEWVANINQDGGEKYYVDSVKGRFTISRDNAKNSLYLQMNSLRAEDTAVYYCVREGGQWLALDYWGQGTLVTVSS VL: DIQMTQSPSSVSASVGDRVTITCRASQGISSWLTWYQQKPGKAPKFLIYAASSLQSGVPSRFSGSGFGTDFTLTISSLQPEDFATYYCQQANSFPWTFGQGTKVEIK
OUT: 7600

IN: Indicate the recorded SKW3 WT anti-hu Kappa FITC, gMFI value for this binder: 75110_09N20A (antibody, V domains shown, Tested here as non-clonal hybridoma supernatant from AlivaMab Mouse Kappa mice (detected with anti-mouse Fc and anti-human kappa)) VH: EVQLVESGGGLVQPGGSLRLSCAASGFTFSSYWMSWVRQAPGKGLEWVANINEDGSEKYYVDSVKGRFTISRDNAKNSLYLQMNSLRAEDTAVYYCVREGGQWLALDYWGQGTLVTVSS VL: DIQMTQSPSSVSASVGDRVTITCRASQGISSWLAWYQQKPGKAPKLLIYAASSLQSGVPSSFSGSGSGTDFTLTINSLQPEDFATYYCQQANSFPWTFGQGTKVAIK
OUT: 5880

IN: For the binder 75110_02E08A (antibody, V domains shown, Tested here as non-clonal hybridoma supernatant from AlivaMab Mouse Kappa mice (detected with anti-mouse Fc and anti-human kappa)) VH: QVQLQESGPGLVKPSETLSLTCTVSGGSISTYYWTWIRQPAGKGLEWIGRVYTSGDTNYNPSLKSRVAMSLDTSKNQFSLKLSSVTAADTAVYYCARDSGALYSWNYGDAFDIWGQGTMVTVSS VL: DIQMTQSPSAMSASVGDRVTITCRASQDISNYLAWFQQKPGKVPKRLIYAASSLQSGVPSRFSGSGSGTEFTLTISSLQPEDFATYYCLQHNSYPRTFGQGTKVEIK , give its reported SKW3 WT anti-hu Kappa FITC, gMFI.
OUT: 7260

IN: Give the value of SKW3 WT anti-hu Kappa FITC, gMFI reported for the following: 75110_03C01A (antibody, V domains shown, Tested here as non-clonal hybridoma supernatant from AlivaMab Mouse Kappa mice (detected with anti-mouse Fc and anti-human kappa)) VH: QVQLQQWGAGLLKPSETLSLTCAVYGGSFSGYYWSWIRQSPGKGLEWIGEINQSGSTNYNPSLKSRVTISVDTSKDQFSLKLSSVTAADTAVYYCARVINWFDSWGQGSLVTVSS VL: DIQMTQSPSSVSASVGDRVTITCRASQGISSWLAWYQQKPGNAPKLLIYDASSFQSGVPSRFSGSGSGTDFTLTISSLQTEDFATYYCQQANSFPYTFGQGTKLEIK
OUT: 5920
